Molecular target: human melanin concentrating hormone type 2 receptor (MCH-2R) (human, UniProt Q969V1 1-340)
Sequence (Q969V1 whole entry, form in doubt): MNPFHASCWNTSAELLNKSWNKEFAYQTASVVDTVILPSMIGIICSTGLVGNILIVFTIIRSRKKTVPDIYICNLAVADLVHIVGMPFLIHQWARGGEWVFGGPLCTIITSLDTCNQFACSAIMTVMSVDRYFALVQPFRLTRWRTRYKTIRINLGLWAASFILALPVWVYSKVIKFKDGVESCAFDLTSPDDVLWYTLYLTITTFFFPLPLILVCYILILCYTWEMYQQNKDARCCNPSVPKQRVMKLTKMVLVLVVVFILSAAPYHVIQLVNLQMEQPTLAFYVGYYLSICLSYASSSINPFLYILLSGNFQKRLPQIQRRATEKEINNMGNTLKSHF
Test: cell-based or functional assay
Bridges are numbered along the chain shown (N, C = ends). [ ]: non-standard residue; d: D form. The star is where a group is joined. Pentanoyl(5-guanidino) = NC(N)=NCCCCC(=O)*; hArg = N=C(N)NCCCC[C@H](N)C(=O)O; GABA = NCCCC(=O)O
Here the recorded Activation % at 10 µM (aequorin functional assay) is given for each entry.
Number first, unit second.

Inquiry: Query: Activation % at 10 µM (aequorin functional assay); subject: Ac-RCML[dA][hArg]VYRPC-NH2 (disulfide 2-11 (inferred), also called D-Ala^10, Harg^11) [SEQ. ID. NO. 36]
Reply text: 74%

Inquiry: Return reported Activation % at 10 µM (aequorin functional assay); argument: [Pentanoyl(5-guanidino)]CML[dA]RVYRPC-NH2 (disulfide 2-11 (inferred); not fully specified, also called (?-NH2)-Arg^6, D-Ala^10) [SEQ. ID. NO. 34]
Reply text: 110%

Inquiry: Any idea what its Activation % at 10 µM (aequorin functional assay) is? The binder is RCMLGRVYRPX (D-Cys^16, also called D-Cys^16) [SEQ. ID. NO. 33]
Reply text: 90%

Inquiry: Looking for the measured Activation % at 10 µM (aequorin functional assay) of Ac-RCMLGRVFRPC-NH2 (disulfide 2-11; SMILES CSCC[C@@H]1NC(=O)[C@@H](NC(=O)[C@H](CCCNC(=N)N)NC(C)=O)CSSC[C@@H](C(N)=O)NC(=O)[C@@H]2CCCN2C(=O)[C@H](CCCNC(=N)N)NC(=O)[C@H](Cc2ccccc2)NC(=O)[C@H](C(C)C)NC(=O)[C@H](CCCNC(=N)N)NC(=O)CNC(=O)[C@H](CC(C)C)NC1=O, also called Phe^13) [SEQ. ID. NO. 27] , can you help?
Reply text: 94%

Inquiry: For the binder shown here, Ac-RCML[dF]RVYRPC-NH2 (disulfide 2-11 (inferred), also called D-Phe^10) [SEQ. ID. NO. 17] , give the reported Activation % at 10 µM (aequorin functional assay).
Reply text: 102%

Inquiry: Consider the binder shown here: Ac-RCML[GABA]RVYRPC-NH2 (disulfide 2-11 (inferred), also called εAbu^10) [SEQ. ID. NO. 21] What is its recorded Activation % at 10 µM (aequorin functional assay)?
Reply text: 112%

Next:
Inquiry: Given the binder RCMLLRVYRPC (also called Leu^10) [SEQ. ID. NO. 8] , what is its reported Activation % at 10 µM (aequorin functional assay)?
Reply text: 80%

Inquiry: Activation % at 10 µM (aequorin functional assay) for RCMLXRVYRPC (D-Nle^10, also called D-Nle^10) [SEQ. ID. NO. 15] ?
Reply text: 78%

Inquiry: // lookup Activation % at 10 µM (aequorin functional assay) for RCMLGRVXRPC (Cha^13 (2-cyclohexyl-alanine), also called Cha^13) [SEQ. ID. NO. 31]
Reply text: 76%
